biological target: Jak2 (UniProt O60674); assay: phosphorylation enrichment, bacterial display (enrichment ratio); higher = better substrate or ligand; peptides without Tyr show the background;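 note: 11-residue human phosphosite peptides and single-mutation variants displayed on the E. coli surface, counted by deep sequencing, each peptide's frequency after selection divided by its frequency in the unselected input library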;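 note: frequency after pTyr selection over input frequency; kinase dosed for 20-30% of maximal phosphorylation in three min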
Sequence (O60674 whole entry, looked up): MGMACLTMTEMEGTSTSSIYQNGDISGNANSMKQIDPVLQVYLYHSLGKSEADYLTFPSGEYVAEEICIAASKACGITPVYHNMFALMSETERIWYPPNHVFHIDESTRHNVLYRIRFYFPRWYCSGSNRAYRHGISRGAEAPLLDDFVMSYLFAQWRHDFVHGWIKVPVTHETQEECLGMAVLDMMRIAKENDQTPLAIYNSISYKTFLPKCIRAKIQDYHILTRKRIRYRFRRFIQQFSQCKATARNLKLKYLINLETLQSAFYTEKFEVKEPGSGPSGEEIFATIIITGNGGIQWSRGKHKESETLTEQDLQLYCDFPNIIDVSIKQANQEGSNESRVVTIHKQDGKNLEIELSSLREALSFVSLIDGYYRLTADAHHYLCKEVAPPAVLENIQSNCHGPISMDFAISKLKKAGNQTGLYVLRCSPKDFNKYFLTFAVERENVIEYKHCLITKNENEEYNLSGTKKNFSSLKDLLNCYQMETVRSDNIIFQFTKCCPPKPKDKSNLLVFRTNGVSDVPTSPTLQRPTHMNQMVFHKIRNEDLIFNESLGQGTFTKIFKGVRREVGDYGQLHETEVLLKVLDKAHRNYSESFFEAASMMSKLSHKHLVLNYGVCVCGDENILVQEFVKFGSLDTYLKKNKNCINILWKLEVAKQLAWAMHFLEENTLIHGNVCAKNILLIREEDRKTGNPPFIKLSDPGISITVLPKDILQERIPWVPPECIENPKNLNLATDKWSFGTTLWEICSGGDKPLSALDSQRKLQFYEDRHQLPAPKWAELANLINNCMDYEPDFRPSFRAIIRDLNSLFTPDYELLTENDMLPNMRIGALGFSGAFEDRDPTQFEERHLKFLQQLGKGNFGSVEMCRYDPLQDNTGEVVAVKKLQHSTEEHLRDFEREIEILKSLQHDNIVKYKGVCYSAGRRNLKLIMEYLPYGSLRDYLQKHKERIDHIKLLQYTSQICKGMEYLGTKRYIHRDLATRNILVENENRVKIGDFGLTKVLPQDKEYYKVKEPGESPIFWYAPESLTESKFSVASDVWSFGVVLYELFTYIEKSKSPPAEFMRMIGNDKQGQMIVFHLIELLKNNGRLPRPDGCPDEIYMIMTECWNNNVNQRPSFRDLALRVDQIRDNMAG
metric name: phosphorylation enrichment
I'd appreciate a reply containing only the number, no unit.

Consider the reported phosphorylation enrichment for these sequences:
KVGPGSLGSGG [RET_Y826_Y826S]: 0.466
FCRITYDIFPF [INTS13_Y67_M66T_YF]: 1.29
LQTYRYHGHSM [PDHA1_Y289]: 0.569
AGNPAYRSFSN [IL4R_Y497]: 0.447

Find the recorded phosphorylation enrichment belonging to SEDANYMRVSC [TTC3_Y1288_K1289M] and report it.
0.743

Find the recorded phosphorylation enrichment belonging to YTNELYMMMRD [FGFR1_Y730_C725Y] and report it.
1.35

Find the recorded phosphorylation enrichment belonging to DDSNLYINVKL [MTHFD1_Y52] and report it.
1.56

Find the recorded phosphorylation enrichment belonging to RQQEVYLLYKQ [RARRES1_Y159_D158V] and report it.
1.34

Find the recorded phosphorylation enrichment belonging to CPTIHYNFMCN [TP53_Y234_T230P_YF] and report it.
0.916

Find the recorded phosphorylation enrichment belonging to SVVVTYEPPEV [TP53_Y220_P219T] and report it.
0.969

Find the recorded phosphorylation enrichment belonging to EILDVYIFLGP [GAA_Y340_G335E] and report it.
1.37

Find the recorded phosphorylation enrichment belonging to MSRNLYSGDFF [DDR2_Y736_YF] and report it.
0.655

Find the recorded phosphorylation enrichment belonging to EFITRYIASLK [PSMA7_Y110_YF] and report it.
0.695

Find the recorded phosphorylation enrichment belonging to SFGESYDNSKS [MAN1B1_Y60_N59S] and report it.
0.939
